target: human mGluR2 (Homo sapiens (Human), UniProt Q14416); test: [35S]GTPγS binding assay (Affinity to mGluR2); type: biochemical; details: cell membrane fraction of HEK293 cells stably expressing human mGluR2; glutamic acid 10 μM
Sequence (Q14416 19-872): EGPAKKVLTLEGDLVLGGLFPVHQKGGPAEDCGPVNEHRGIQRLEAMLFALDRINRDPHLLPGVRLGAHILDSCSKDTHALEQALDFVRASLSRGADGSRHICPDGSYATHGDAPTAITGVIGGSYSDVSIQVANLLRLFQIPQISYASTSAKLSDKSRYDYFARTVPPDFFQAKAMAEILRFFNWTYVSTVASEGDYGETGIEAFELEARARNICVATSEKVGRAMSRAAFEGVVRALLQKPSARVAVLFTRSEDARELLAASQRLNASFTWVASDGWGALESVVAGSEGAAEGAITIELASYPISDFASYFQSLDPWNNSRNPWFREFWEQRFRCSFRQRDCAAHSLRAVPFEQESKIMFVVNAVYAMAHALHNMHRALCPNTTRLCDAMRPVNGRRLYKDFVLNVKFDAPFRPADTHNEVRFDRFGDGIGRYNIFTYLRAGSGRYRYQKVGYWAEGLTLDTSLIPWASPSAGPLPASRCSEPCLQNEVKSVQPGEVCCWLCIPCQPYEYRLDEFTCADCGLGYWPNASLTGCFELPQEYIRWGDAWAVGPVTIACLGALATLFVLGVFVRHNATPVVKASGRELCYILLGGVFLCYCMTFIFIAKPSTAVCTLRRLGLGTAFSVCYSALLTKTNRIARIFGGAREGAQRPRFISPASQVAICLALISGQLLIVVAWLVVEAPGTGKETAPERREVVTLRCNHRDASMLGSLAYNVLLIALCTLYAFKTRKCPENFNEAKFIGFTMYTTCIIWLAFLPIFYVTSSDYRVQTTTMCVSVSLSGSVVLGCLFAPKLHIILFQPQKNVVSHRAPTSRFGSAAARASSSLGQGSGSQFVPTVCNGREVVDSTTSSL
experimental.endpoint: IC50 (nM)

| record.smiles | IC50 (nM) |
| --- | --- |
| Cc1cc(-c2nc(-c3ccc(OC(C)C)c(Cl)c3)n3c2CCO[C@H](C)C3)cc(C)n1 | 2.7 |
| Cc1cc(-c2nc(-c3ccc(OC(F)F)c(Cl)c3)n3c2CCO[C@H](C)C3)ccn1 | 7.5 |
| Cc1cc(-c2nc(-c3ccc(Cl)c(OC(F)(F)F)c3)n3c2CCOCC3)cc(C)n1 | 40 |
| CCOc1ccc(-c2nc(-c3cc(C)nc(C)c3)c3n2C[C@@H](C)OCC3)cc1Cl | 2.8 |
| COc1cc(-c2nc(-c3cc(C)nc(C)c3)c3n2C[C@@H](C)OCC3)ccc1OC(F)(F)F | 3.2 |
| COc1cc(-c2nc(-c3cc(C)nc(C)c3)c3n2C[C@@H](C)OCC3)ccc1Cl | 10 |

(A) Cc1cc(-c2nc(-c3ccc(OC4CC4)c(C)c3)n3c2CCO[C@H](C)C3)cc(C)n1
(B) Cc1cc(-c2nc(-c3ccc(Cl)c(F)c3)n3c2CCOCC3)cc(C)n1
Name the one with the greater IC50 value, either A or B as given. Answer with the label corresponding to your selection.
B
(B: 92.1 nM, A: 3.4 nM)

(a) Cc1cc(-c2nc(-c3ccc(F)c(OCC(C)C)c3)n3c2CCOCC3)cc(C)n1
(b) Cc1cc(-c2nc(-c3ccc(OC(F)(F)F)c(Cl)c3)n3c2CCOCC3)cc(C)n1
(c) COc1cc(-c2nc(-c3ccnc(C)c3)c3n2C[C@@H](CF)OCC3)ccc1C
(d) Cc1cc(-c2nc(-c3ccc(OC(F)F)c(C)c3)n3c2CCO[C@H](C)C3)cc(C)n1
(e) COc1cc(-c2nc(-c3cc(C)nc(C)c3)c3n2C[C@@H](CF)OCC3)ccc1Cl
Given 5 molecules, produce a descending ranking by IC50. Please, when replying, give the labels in the order that was requested.
a, c, b, e, d
(a: 49.5 nM, c: 29.4 nM, b: 17.9 nM, e: 11.4 nM, d: 5.6 nM)

(1) Cc1cc(-c2nc(-c3ccc(Cl)c(F)c3)n3c2CCO[C@H](C)C3)cc(C)n1
(2) CCOc1ccc(-c2nc(-c3cc(C)nc(C)c3)c3n2C[C@@H](CF)OCC3)cc1Cl
Determine, for 1 and 2 , which has the greater value of IC50. Answer format: the label of the selected item.
1

(a) Cc1cc(-c2nc(-c3cccc(OC(F)(F)F)c3)n3c2CCO[C@H](C)C3)cc(C)n1
(b) COc1cc(-c2nc(-c3cc(C)nc(C)c3)c3n2C[C@@H](CF)OCC3)ccc1C(F)(F)F
Given the listed records, identify the one among a and b with higher IC50. Let me know the label of the one you choose.
a
